// provenance: ChEMBL document CHEMBL1143536

Experiment: Ratio of inhibitory concentration against prostaglandin G/H synthase 1 to that of prostaglandin G/H synthase 2
property_label: Ratio

1. NS(=O)(=O)c1ccc(-n2nc(C(F)(F)F)c3c2-c2ccccc2CS3)cc1 ... 1.3
2. NS(=O)(=O)c1ccc(-n2nc(C(F)(F)F)c3c2-c2ccccc2OC3)cc1 ... 0.72
3. NS(=O)(=O)c1ccc(-n2nc(C(F)(F)F)c3c2-c2ccc(F)cc2CS3)cc1 ... 0.84
4. COc1ccc2c(c1F)CSc1c(C(F)(F)F)nn(-c3ccc(S(N)(=O)=O)cc3)c1-2 ... 2.48
5. N#Cc1nn(-c2ccc(S(N)(=O)=O)cc2)c2c1SCc1cc(F)ccc1-2 ... 0.7
6. COc1ccc2c(c1)CSc1c(C(F)(F)F)nn(-c3ccc(S(N)(=O)=O)cc3)c1-2 ... 1.36
7. NS(=O)(=O)c1ccc(-n2nc(C(F)(F)F)c3c2-c2ccc(F)c(F)c2CS3)cc1 ... 2.58
8. NS(=O)(=O)c1ccc(-n2nc(C(F)(F)F)c3c2-c2cccc(F)c2CS3)cc1 ... 2.47
9. Cc1ccc2c(c1)CSc1c(C(F)(F)F)nn(-c3ccc(S(N)(=O)=O)cc3)c1-2 ... 1.56
10. Cc1ccc2c(c1F)CSc1c(C(F)(F)F)nn(-c3ccc(S(N)(=O)=O)cc3)c1-2 ... 2.84
